target: UniProtKB P51685; assay: Tango assay (Tango-CCR8-Gal4-CHO-K1 cells, CCL1-stimulated, ONE-Glo luminescence); conditions: Tango Assay IC50, Inhibition of CCR8 Tango cell in vitro
Sequence (P51685 whole entry, the tested form may be a part): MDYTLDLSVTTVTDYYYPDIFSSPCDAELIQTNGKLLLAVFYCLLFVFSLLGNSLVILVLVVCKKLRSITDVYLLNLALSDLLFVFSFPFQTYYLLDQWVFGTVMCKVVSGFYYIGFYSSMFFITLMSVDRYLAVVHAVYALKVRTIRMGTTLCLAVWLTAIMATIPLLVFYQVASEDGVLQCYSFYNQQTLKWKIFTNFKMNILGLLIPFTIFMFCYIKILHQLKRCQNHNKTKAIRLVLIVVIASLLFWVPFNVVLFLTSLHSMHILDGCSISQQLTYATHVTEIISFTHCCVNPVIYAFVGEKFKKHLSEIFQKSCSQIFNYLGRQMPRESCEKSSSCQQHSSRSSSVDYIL
Counter-ions that a name gives are not always drawn.
outcome measure: IC50

[
  {
    "compound": "Cc1ccccc1C(=O)Nc1ccc(S(=O)(=O)N[C@H](C)C2CCN(C(=O)OC(C)(C)C)CC2)cc1Br",
    "reported value": "> 10 µM"
  },
  {
    "compound": "Cc1ccccc1C(=O)Nc1ccc(S(=O)(=O)N[C@H](C)C2CCNCC2)cc1C(N)=O",
    "reported value": "> 10 µM"
  },
  {
    "compound": "CCCN1CCN(c2cc(NS(=O)(=O)c3ccc(NC(=O)c4ccccc4C)c4ccccc34)ccc2C(=O)O)CC1",
    "reported value": "> 10 µM"
  }
]

Supply IC50 value. Item: `Cc1ccccc1C(=O)Nc1ccc(S(=O)(=O)NC(=O)c2cccc(N(C)C)c2)c2ccccc12` > 10 µM

Complete the entry with IC50 for COC(=O)CN1CCCC(C(C)NS(=O)(=O)c2ccc(NC(=O)c3ccccc3C)c3ccccc23)C1 (single isomer, unassigned) [Compound 19B] > 10 µM

Hello, please tell me recorded IC50 for this one: `CCCN1CCN(c2c(F)cccc2NS(=O)(=O)c2ccc(NC(=O)c3ccccc3C)c3ccccc23)CC1` > 10 µM

For the compound Cc1ccccc1C(=O)Nc1c(C)cc(S(=O)(=O)N[C@H](C)C2CCNCC2)cc1F [Compound 302, hydrochloride] , report IC50. > 100 µM

Specify IC50 for CCN1CCCN(C(c2cccc(NS(=O)(=O)c3ccc4ccccc4c3)c2)C(F)(F)F)CC1 (stereo not drawn) and stop. > 100 µM

Specify IC50 for Cc1ccccc1C(=O)Nc1ccc(S(=O)(=O)NC(C)C2CCCN(C(=O)CNC(=O)OC(C)(C)C)C2)c2ccccc12 (single isomer, unassigned) [Compound 155B] and stop. > 10 µM

Give me measured IC50, please, for this compound: Cc1cc(S(=O)(=O)NC(C)C(C)(C)CN(C)C)ccc1NC(=O)c1ccccc1C (stereo not drawn) [Compound 294, hydrochloride] > 100 µM

Please give the documented IC50 of Cc1ccccc1C(=O)Nc1ccc(S(=O)(=O)Nc2ccc3c(c2)C(N(C)CCN(C)C)CCC3)c2ccccc12 (stereo not drawn) > 10 µM

# return recorded IC50 for input CC(NS(=O)(=O)c1ccc2c(c1)C(=O)NCC2)C1CC2CCC1CC2 (stereo not drawn) > 10 µM

Quickly give me recorded IC50 for Cc1cc(S(=O)(=O)N[C@H](C)C2C[C@@H]3CCC2N3)ccc1NC(=O)c1ccccc1C (stereo partly drawn) [Compound 228A, hydrochloride] > 100 µM

State its IC50: Cc1cc(S(=O)(=O)N[C@H](C)C2CCNCC2)cc(C)c1NC(=O)c1ccccc1 [Compound 181, hydrochloride] > 10 µM

Name the recorded IC50 of the compound listed here: CCCC(=O)N1CCCC(CNS(=O)(=O)c2ccc(NC(=O)c3ccccc3C)c3ccccc23)C1 (stereo not drawn) > 10 µM
